B1: CPEB3 Ribozyme (parent)
chain: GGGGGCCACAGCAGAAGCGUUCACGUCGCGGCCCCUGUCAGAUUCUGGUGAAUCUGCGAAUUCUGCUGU

variants of: B1; test: self-cleavage, relative activity (ratio to wild type); higher = more cleavage; co-transcriptional
Recorded self-cleavage determines the label; the label ranges are low group (below 0.2), middle group (0.2 to below 0.6), high group (0.6 or more)

Please report the category associated with G11C A52C , nothing else.
middle group

How about this variant: C12U U20C
low group

How about this variant: C24U A59C
middle group

How about this variant: C22A U26C
middle group

How about this variant: G11U G58U
high group

How about this variant: C12A G19C
low group

How about this variant: U36G U46C
middle group

How about this variant: G31A U49C
high group

How about this variant: G19A C66G
low group

How about this variant: G11C U64C
middle group

How about this variant: C7G G28U
low group

How about this variant: G14U U49C
high group

How about this variant: C7A G56A
middle group

How about this variant: U44G C63A
high group

How about this variant: G37A C39A
middle group

How about this variant: G11U A51G
high group

How about this variant: A8C G31C
middle group

How about this variant: C7A A40U
low group

How about this variant: C18A G31A
low group

How about this variant: G30U C39U
middle group

How about this variant: G1A U46C
low group

How about this variant: U38C G48A
high group

How about this variant: G30C C34A
middle group

How about this variant: G1C U49G
middle group

How about this variant: G4C G14U
low group

How about this variant: A23G U43C
high group

How about this variant: C32G A60G
middle group

How about this variant: U53A U64C
high group

How about this variant: G50C U53C
high group

How about this variant: C29U U55G
low group

How about this variant: U61C C63U
middle group

How about this variant: A23C U62C
high group

How about this variant: A16U A60G
middle group

How about this variant: U61C C66U
middle group

How about this variant: G41A U61A
middle group

How about this variant: G2C G28U
low group

How about this variant: U21A U46A
high group

How about this variant: G14U G50U
high group

How about this variant: C7U C33A
high group

How about this variant: C45A U62C
high group

How about this variant: G25A A59U
low group

How about this variant: G31A U62A
middle group

How about this variant: G31U U62G
middle group
